- TARGET_UNDER_TEST: ENO1down (Homo sapiens, UniProt P06733 1-434, K343A)
- Sequence (P06733 whole entry K343A): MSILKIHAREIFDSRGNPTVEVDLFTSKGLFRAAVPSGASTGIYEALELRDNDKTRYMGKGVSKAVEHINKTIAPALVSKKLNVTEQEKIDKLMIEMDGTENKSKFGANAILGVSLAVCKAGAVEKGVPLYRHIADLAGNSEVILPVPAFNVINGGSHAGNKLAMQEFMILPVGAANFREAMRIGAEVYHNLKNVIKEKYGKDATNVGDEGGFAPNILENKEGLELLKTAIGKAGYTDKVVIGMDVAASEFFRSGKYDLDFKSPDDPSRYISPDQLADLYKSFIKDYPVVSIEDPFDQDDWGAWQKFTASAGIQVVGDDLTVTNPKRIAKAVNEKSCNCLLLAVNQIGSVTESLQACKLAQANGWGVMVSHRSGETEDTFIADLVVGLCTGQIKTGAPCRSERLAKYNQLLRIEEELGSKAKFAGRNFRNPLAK
- ASSAY_OVERVIEW: competition EMSA
This listing pairs binders with measured Ki.
MEASUREMENT_NAME: Ki (nM)

- BINDER: "CCUCUUUUAUAAAAUAACCCGGUGAAGCAGCCGAG (ssRNA) [PABPC1 target 35-mer]"
  READOUT_NUMBER: 224
- BINDER: "GGCCCCCAGCCCCGGCACUCGCUCUCCUCCUCUCA (ssRNA) [PABPC1 control 35-mer]"
  READOUT_NUMBER: 3260
